Tested on: CCRF-CEM leukemia
experiment: NCI tumour cell line growth inhibition, 48 h
For each record, write down the corresponding TGI.

Task item: Which TGI is listed for `Cc1ccc2nc(-c3ccc(N)c4ccccc34)[nH]c2c1` ?
Reply: 2.1 µM

Task item: Now consider `CCOC(=O)C(C(=O)OCC)C(=O)c1ccccc1C(=O)c1ccccc1` and answer again.
Reply: > 100 µM

Task item: Same read-out for `O=C(CSc1nnc(-c2ccc(N=Cc3ccc(Cl)cc3)cc2)o1)Nc1ccc([N+](=O)[O-])cc1` ?
Reply: 47.6 µM

Task item: Request: `Cc1ccc(S(=O)(=O)n2ccc(-c3ccc4ccn(S(=O)(=O)c5ccc(C)cc5)c4c3)c2)cc1`
Reply: > 100 µM

Task item: Similarly, `Clc1ccc(CNc2nccc(-c3cnn4ncccc34)n2)cc1` ?
Reply: > 25 µM

Task item: // repeat for `Nc1c(C(=O)N/N=C/c2ccc(-c3cc(Cl)c(Cl)cc3Cl)o2)cnn1-c1ccnc2c(C(F)(F)F)cccc12` and report
Reply: > 100 µM

Task item: What about this molecule? O=C(Nc1ccc(Br)cc1)C(=O)C(C(=O)c1ccccc1F)C1OC(=O)c2ccccc21 (stereo unspecified)
Reply: > 100 µM

Task item: Try this molecule next: `Cc1cc(N2CCCC2)c([N+](=O)[O-])cc1[N+](=O)[O-]`
Reply: > 100 µM

Task item: Okay, and `COc1cccc(N=N/C(=N\NC(=O)c2cc(Br)ccc2O)c2ccc(N(CCC#N)CCC#N)cc2OC)c1` ?
Reply: > 150 µg/mL

Task item: Entry `O=C(O)CCc1ccc2c(c1)CC1(Cc3ccccc3C1)C2` please
Reply: > 100 µM

Task item: Another: `COc1ccc2c(c1)c(-c1ccc(-c3cn(C)c4ccc(OC)cc34)[nH]1)cn2C`
Reply: 5.8 µM

Task item: Follow-up entry: O=C1CS(=O)(=O)C(c2cccc(Oc3ccccc3)c2)N1c1ccccc1 (stereo unspecified)
Reply: > 100 µM

Task item: Also, `O=C1c2ccccc2-c2c1c1ccc([N+](=O)[O-])cc1c(=O)n2CCCNCCO` please.
Reply: 1.09 µM

Task item: Please give the result for CC1(C(=O)O)CCOc2ccccc21 (stereo unspecified) too.
Reply: > 100 µM

Task item: Moving on to `O=C(COc1cccc(/C=C2\Oc3ccc4ccccc4c3C2=O)c1)c1ccc(Cl)cc1`
Reply: 8.39 µM

Task item: Okay, and `O=C(CCSc1ccnc2c(C(F)(F)F)cccc12)N/N=C/c1cc(Cl)c(Cl)cc1Cl` ?
Reply: 62.1 µM

Task item: Same read-out for `C=C(CNC(=O)c1ccccc1)c1ccc(C(=O)Nc2ccccc2N)cc1` ?
Reply: 8.38 µM

Task item: CCOC(=O)N1C(c2ccccc2)C=CC(c2ccccc2)N1C(=O)OCC (stereo unspecified) ?
Reply: > 100 µM

Task item: Entry Cc1c(O)c(OC2OC(CO)C(O)C(O)C2O)cc2c1C=C[C@@H]1[C@@]2(C)C(=O)C[C@]2(C)[C@@H]([C@@](C)(O)C(=O)CCC(C)(C)O)[C@H](O)C[C@@]12C (stereo partly specified) please
Reply: > 100 µM

Task item: // repeat for `CN(C)CCCCn1ccc2c1C(=O)c1c(c(O)c3ccccc3c1O)C2=O` and report
Reply: 4.54 µM

Task item: Next: `Cc1cc(N(CCC#N)CCC#N)ccc1/C=C1\SC(=S)NC1=O`
Reply: > 100 µM

====

Test system: OVCAR-4 ovarian
experiment: NCI tumour cell line growth inhibition, 48 h
Please respond with reported GI50 for every item in the list.

Task item: Quick check: GI50 of `CCCCCCCCCCCCCCCCCCOc1ccccc1CC(=O)NCC[N+](C)(C)C` ?
Reply: 3.11 µM

Task item: Entry `Clc1ccc(CNc2nccc(-c3cnn4ncccc34)n2)cc1` please
Reply: 7.47 µM

Task item: Next: `Nc1c(C(=O)N/N=C/c2ccc(-c3cc(Cl)c(Cl)cc3Cl)o2)cnn1-c1ccnc2c(C(F)(F)F)cccc12`
Reply: 2.6 µM

Task item: Also `O=C1c2ccccc2-c2c1c1ccc([N+](=O)[O-])cc1c(=O)n2CCCNCCO` ?
Reply: 0.492 µM

Task item: How about Fc1ccc2c(c1)C1=C(CO2)C(c2ccc(Cl)cc2)NC(=S)N1 (centres undefined) ?
Reply: 51.9 µM

Task item: Similarly, `O=S(=O)(NC1=NCCN1C(=S)SN1CCn2c1nsc2=S)c1ccccc1Cl` ?
Reply: 15.6 µM

Task item: Request: C=C1C(OC/C=C/COC2O[C@@H]3O[C@@]4(C)CC[C@H]5[C@H](C)CC[C@@H](C2=C)[C@@]35OO4)O[C@@H]2O[C@@]3(C)CC[C@H]4[C@H](C)CC[C@@H]1[C@@]24OO3 (some centres undefined)
Reply: 0.741 µM

Task item: How about this compound: `CC(C)C[C@H](NC(=O)CCn1ccc2ncccc2c1=O)B(O)O`
Reply: 24.9 µM

Task item: Entry `COc1cccc(N=N/C(=N\NC(=O)c2cc(Br)ccc2O)c2ccc(N(CCC#N)CCC#N)cc2OC)c1` please
Reply: 17.5 µg/mL

====

System: HOP-92 NSCLC
experiment: NCI tumour cell line growth inhibition, 48 h
Please respond with reported TGI for every item in the list.

Task item: # get_value(readout='TGI', item= `NC(=Nc1ccccc1)c1ccccc1N` )
Reply: > 100 µM

Task item: // same read-out, input: OCC(CCc1c[nH]c2ccccc12)c1c[nH]c2ccccc12 (stereo not given)
Reply: 32.7 µM

Task item: Next: `Cc1cnccc1N=Nc1ccc(N(C)C)cc1`
Reply: 36.1 µM

Task item: // repeat for COC12CCC(C(C(=O)c3ccccc3)=C1C(=O)c1ccccc1)C(O)C2 (stereo not given) and report
Reply: > 100 µM

Task item: And for `Cc1cc(O)cc(O)c1C(=O)O[C@]1(C)C(=O)C=C2C=C(/C=C/C(=O)O)OC=C2C1=O` ?
Reply: > 100 µM

Task item: Also `CCN(CC)c1ccc(N=C2C=C(Cl)C(=O)c3ncccc32)c(C)c1` , if possible.
Reply: 7.2 µM

Task item: Same read-out for `O=[N+]([O-])c1ccc(O)c(/C=N/c2nc(-c3ccccc3)cs2)c1` ?
Reply: 75.2 µM

Task item: What about `CC(C)C(=O)[O-].CC(C)C(=O)[O-].N.N.N.N.[Co+3].[O-][Cl+3]([O-])([O-])[O-]` ?
Reply: > 100 µM

Task item: What do you get for CCCCCCCCCCCCCCCCCC(=O)Nc1ccn(C2CCC(COP(=O)(O)O)O2)c(=O)n1 (stereo not given) ?
Reply: > 100 µM

Task item: What do we get for `CNC1=C(C(=O)OC)SC(c2ccccc2)(c2ccccc2)SC1` ?
Reply: > 100 µM

Task item: Please answer likewise for `NS(=O)(=O)c1ccc(-n2ncc3c(Nc4ccccc4)ncnc32)cc1`
Reply: > 100 µM

Task item: Same lookup for COCC12CCC(OC)C34C5CC6(O)C(OC)CC(OC(C)=O)(C5C6OC(=O)c5ccccc5)C(C(OC)C13)C4N(C)C2 (stereo not given) , please.
Reply: > 100 µM

Task item: Same thing, different molecule: `COc1ccc([C@]23CCN4COC[C@@H]([C@H]42)C2(CC3)OCC(C)(C)CO2)cc1OC`
Reply: > 100 µM

Task item: What would you report for `O=C(C(Cl)=C(N1CCCCC1)N1CCCCC1)C(Cl)Cl` ?
Reply: > 100 µM

Task item: How about `O=C(CCSc1ccnc2c(C(F)(F)F)cccc12)N/N=C/c1cc(Cl)c(Cl)cc1Cl` ?
Reply: 34.3 µM

Task item: Repeat with `O=C(N/N=C/c1ccc(Cl)cc1Cl)c1ccc2nc(-c3ccc(Cl)cc3)[nH]c2c1`
Reply: 3.53 µM

Task item: Please do the same for CN(Cc1cnc2nc(N)nc(N)c2n1)c1ccc(C(=O)NC(CCC(=O)NC(CC(P(=O)(O)O)P(=O)(O)O)C(=O)O)C(=O)O)cc1 (stereo not given) as well.
Reply: > 100 µM

Task item: Also COC1=C2C=[N+](C)C3C(=C2C=CC1OC)Cc1cc2c(cc13)OCO2 (stereo not given) ?
Reply: 49.3 µM

Task item: What about this molecule? `CCOc1nccc2c1nc(-c1nonc1N)n2CC`
Reply: > 25 µM

Task item: Request: `CC(=O)NC1(C(=O)N[C@@H](Cc2ccccc2)C(=O)NC2CCCCC2)Cc2ccc3ccccc3c2-c2c(ccc3ccccc23)C1`
Reply: > 100 µM

====

System: HT29 colon
experiment: NCI tumour cell line growth inhibition, 48 h
Please respond with reported TGI for every item in the list.
# number only, unit µM dropped from output

Task item: Fill in the recorded TGI for this compound, with HT29 colon as test system: `CC(C)(C)OC(=O)N1[C@@H]2Cc3ccc(N)cc3[C@@]1(C)c1ccccc12`
Reply: 44.1

Task item: Here is the next compound: `COc1ccc(CNc2nc3cc(C(F)(F)F)ccc3nc2-c2ccccc2)cc1OC`
Reply: 61.1

Task item: Entry to check: `CCCCCCCCCCCCCCCCCCOc1ccccc1CC(=O)NCC[N+](C)(C)C`
Reply: 26.7

Task item: // query: `CCC(=O)/C(=C\I)c1ccccc1`
Reply: 2.51

Task item: Now the compound `COc1ccc(Cn2cc3c(c2-c2cc(OC)c(OC)c(OC)c2)CCc2cnoc2-3)cc1N`
Reply: 1.71

Task item: Now try `CC(=O)[O-].[Zn].c1ccc(/C(=N\Nc2ccccn2)c2ccccn2)cc1` .
Reply: 4.13

Task item: Moving on to the next compound: `O=C(N/C(=C\c1ccc(/C=C(\NC(=O)c2ccccc2)c2nc3ccccc3s2)cc1)c1nc2ccccc2s1)c1ccccc1`
Reply: 19.1

Task item: Next up: `COc1c(Cl)ccc2c(-c3nc4cc(Cl)c(F)cc4s3)cc(=O)oc12`
Reply: 6.54

Task item: What do we get for CSc1ccc(SC2c3ccc(C)cc3Oc3nc(N)c(C#N)c(N)c32)cc1 (stereo not given) ?
Reply: 4.37

Task item: What do we get for OCC(O)C(O)C(O)c1nn(-c2ccccc2)c2nc3cc(Cl)c(Cl)cc3nc12 (stereo not given) ?
Reply: 57

Task item: Let us now turn to `O=c1oc2c3ccc4cnccc4c3[nH]c2c2ccccc12`
Reply: 37.2

Task item: Repeat for the following compound: `CN(C)CCCCn1ccc2c1C(=O)c1c(c(O)c3ccccc3c1O)C2=O`
Reply: 18.4

Task item: Next entry: C=C1C(=O)OC2/C=C(\CO)CC/C=C(\CO)CC(OC(=O)C(C)C)C12 (stereo not given)
Reply: 30
